These entries and their values trace back to ChEMBL document CHEMBL5308504.

Target: Cyclin-dependent kinase 2 (Homo sapiens)
Details: Compound concentration 20.0 uM, Protein concentration 2.0 uM, Result type QC Liability
Description: Thermal Shift Assay. Domain: start/stop: M1-L298
Note to self: class = bucket of ΔTm, per category 1 = under 0.2 °C, category 2 = from 0.2 °C up to 0.7 °C, category 3 = 0.7 °C and over

# Compound, Discrete Label
measured = [
    ("Cc1nc2cccnc2n2c(-c3cc(C(C)(C)O)ncc3Cl)nnc12", "category 3"),
]

# input Hi, small favor: classify `CC[C@H](CO)Nc1nc(Nc2cccc(-c3ccccn3)c2)c2ncn(C(C)C)c2n1` by its ΔTm when you get a moment.
# output category 3

# input Moving on to the next compound: `Cc1nc(Nc2cnn(C3CCNCC3)c2)nc2c1N(C)C(=O)c1cc3ccccc3cc1N2C`
# output category 1

# input Moving on to the next compound: `Cc1sc(C(=O)c2cncnc2N[C@@H]2C[C@H](COS(N)(=O)=O)[C@@H](O)C2)cc1[C@@H]1NCCc2ccc(Cl)cc21`
# output category 2

====

Collected ΔTm values appear next to each entry.
Target: Mitogen-activated protein kinase 1 (Homo sapiens) (UniProt P28482)
Sequence (P28482 whole entry): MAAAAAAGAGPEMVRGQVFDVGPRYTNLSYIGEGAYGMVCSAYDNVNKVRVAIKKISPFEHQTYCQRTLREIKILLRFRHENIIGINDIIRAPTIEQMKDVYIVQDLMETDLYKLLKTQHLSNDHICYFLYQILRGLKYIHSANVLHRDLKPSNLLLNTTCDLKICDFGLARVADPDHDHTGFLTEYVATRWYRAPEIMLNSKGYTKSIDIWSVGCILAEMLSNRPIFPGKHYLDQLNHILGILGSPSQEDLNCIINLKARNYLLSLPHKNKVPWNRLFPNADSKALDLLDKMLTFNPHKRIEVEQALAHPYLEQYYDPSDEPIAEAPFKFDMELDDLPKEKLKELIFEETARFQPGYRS
Conditions: Compound concentration 20.0 uM, Protein concentration 2.0 uM, Result type QC Liability
Description: Thermal Shift Assay. Domain: start/stop: M1-S360
Lab book: enter the figure in °C, no units written.

Some solved cases for reference:
# Molecule, ΔTm (°C)
measured = [
    ("COc1cc(-c2cncc(-c3cnn(C4CCNCC4)c3)c2)cc(OC)c1OC", 0.5),
    ("CCN1CCN(Cc2ccc(Nc3ncc(F)c(-c4cc(F)c5nc(C)n(C(C)C)c5c4)n3)nc2)CC1", 1.41),
    ("COc1ccccc1-c1cc(Nc2cccc(CS(N)(=O)=O)c2)ncn1", -0.04),
    ("C=CC1C[C@]1(NC(=O)[C@@H]1C[C@@H](Oc2cc(-c3csc(NC(=O)C(C)C)n3)nc3c(Br)c(OC)ccc23)CN1C(=O)[C@@H](NC(=O)OC1CCCC1)C(C)(C)C)C(=O)O (some centres undefined)", -1.13),
    ("COC1(C#Cc2ccc(Cl)c(-c3ncc4c(n3)-c3sc(NC(C)=O)nc3CC4)c2)CCN(C)CC1", 0.03),
]

Now consider a different molecule.
# input Which value of ΔTm has been reported for `FC(F)c1cncc(-c2ccc3ncc4nnc(C5=CCCOCC5)n4c3c2)c1` in the records?
# output 0.41

====

Molecular target: Mitogen-activated protein kinase 1 (Homo sapiens) (UniProt P28482)
Conditions: Compound concentration 20.0 uM, Protein concentration 2.0 uM, Result type QC Liability
Label satisfied for high-side ΔTm (at or above 0.3 °C) and not satisfied for low-side ΔTm (below it).

# input Can `CC(C=CC1=C(C)CCCC1(C)C)=CC=CC(C)=CC(=O)O` be said to have ΔTm at or above 0.3 °C?
# output not satisfied

# input Moving on to the next compound: `Cc1cc(S(=O)(=O)N2CC(C)(C)c3cc(-c4ccc(C(F)(F)F)cc4)ccc32)ccc1OCC(=O)O`
# output not satisfied

# input Moving on to the next compound: `COc1cc2nc([C@@H]3CCCS(=O)(=O)C3)n(C)c2cc1NC(=O)c1cccc(C(C)(F)F)n1`
# output not satisfied

# input Moving on to the next compound: `CNc1oc(-c2cccc3ccccc23)nc1C#N`
# output not satisfied

# input Moving on to the next compound: `Cc1cc(-c2ccnc(Nc3cnn(C)c3)n2)ccc1CNC(=O)N1CC(OC(C)C)C1`
# output satisfied
